Provide the reported pIC50 of each item.
study-target: UniProt P00797
assay-details: Inhibition of human recombinant renin
Answers are plain numbers, as −log10 of the molar value.

Please review the entries below; each comes with its answer.
- molecule: "CC(C)CC(NC(=O)[C@H](Cc1ccccc1)N1CC2CCCN2C1=O)C(=O)N[C@@H](CC1CCCCC1)C(O)C(=O)OC(C)C (some centres undefined)"
  experimental-readout: "pIC50"
  experimental-result: 6.85
- molecule: "CC(C)CC(NC(=O)[C@H](Cc1ccccc1)N1Cc2ccccc2C1=O)C(=O)N[C@@H](CC1CCCCC1)C(O)C(=O)OC(C)C (some centres undefined)"
  experimental-readout: "pIC50"
  experimental-result: 7.44
- molecule: "CC(C)CC(NC(=O)[C@H](Cc1ccccc1)N1Cc2cccc3cccc(c23)C1=O)C(=O)N[C@@H](CC1CCCCC1)C(O)C(=O)OC(C)C (some centres undefined)"
  experimental-readout: "pIC50"
  experimental-result: 7.10

// below: pIC50 requested for another molecule
## Input Can you share its pIC50? I mean this molecule: CCC[C@H](NC(=O)[C@H](Cc1ccccc1)N1Cc2ccccc2C1=O)C(=O)N[C@@H](CC1CCCCC1)C(O)C(=O)OC(C)C (some centres undefined)
## Output 8.05

* * *

study-target: Renin (Homo sapiens)
Sequence (P00797 whole entry): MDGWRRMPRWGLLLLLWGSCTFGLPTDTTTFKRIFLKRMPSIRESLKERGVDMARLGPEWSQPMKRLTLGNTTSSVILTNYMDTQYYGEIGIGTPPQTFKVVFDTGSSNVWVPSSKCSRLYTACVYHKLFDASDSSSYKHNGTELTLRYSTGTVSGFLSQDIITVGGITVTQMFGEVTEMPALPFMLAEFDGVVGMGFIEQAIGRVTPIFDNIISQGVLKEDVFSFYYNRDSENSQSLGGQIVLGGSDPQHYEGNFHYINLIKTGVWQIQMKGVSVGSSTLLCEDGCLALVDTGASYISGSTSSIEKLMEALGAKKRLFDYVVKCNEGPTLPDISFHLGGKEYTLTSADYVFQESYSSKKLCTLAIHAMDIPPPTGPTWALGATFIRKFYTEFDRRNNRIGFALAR
assay-details: Inhibition of human recombinant renin
experimental-readout: pIC50
Numbers only, as −log10 of the molar value.

Please review the entries below; each comes with its answer.
- molecule: "CCCC[C@H](NC(=O)[C@H](Cc1ccccc1)N1Cc2ccccc2C1=O)C(=O)N[C@@H](CC1CCCCC1)C(O)C(=O)OC(C)C (some centres not stated)"
  study-target: "Renin (Homo sapiens)"
  experimental-result: 7.80
- molecule: "CC(C)CC(NC(=O)[C@H](Cc1ccccc1)N1CCCC1=O)C(=O)N[C@@H](CC1CCCCC1)C(O)C(=O)OC(C)C (some centres not stated)"
  study-target: "Renin (Homo sapiens)"
  experimental-result: 6.80

Would you be so kind as to report pIC50 for each listed record?
1. CC(C)CC(NC(=O)[C@H](Cc1ccccc1)N1Cc2nccn2C1=O)C(=O)N[C@@H](CC1CCCCC1)C(O)C(=O)OC(C)C (some centres not stated)
2. COC(=O)C(O)[C@H](CC1CCCCC1)NC(=O)C(Cc1cnc[nH]1)NC(=O)[C@H](Cc1ccccc1)N1Cc2ccccc2C1=O (some centres not stated)

## Output
7.00
6.73

Would you be so kind as to report pIC50 for each listed record?
1. COC(=O)C(O)[C@H](CC1CCCCC1)NC(=O)C(CC(C)C)NC(=O)[C@H](Cc1ccccc1)N1Cc2ccccc2C1=O (some centres not stated)
2. COC(=O)C(O)[C@H](CC1CCCCC1)NC(=O)C(CC(C)C)NC(=O)[C@H](Cc1ccccc1)N1Cc2ncccc2C1=O (some centres not stated)

## Output
1: 7.64; 2: 6.68

## Input Can you share its pIC50? I mean this molecule: COC(=O)C(O)[C@H](CC1CCCCC1)NC(=O)C(CC(C)C)NC(=O)[C@H](Cc1ccccc1)N1C(=O)c2cccc3cccc(c23)C1=O (some centres not stated)
## Output 6.41
